Biological target: T1, human PRLR on cells (endogenous on T47D, T47D#11, MCF7); introduced in HEK293/hPRLR/STAT5-Luc, 293/hPRLR, … (human, UniProt P16471 25-622)
T1 construct: no tag is stated for these lines; also called prolactin receptor
T1 sequence: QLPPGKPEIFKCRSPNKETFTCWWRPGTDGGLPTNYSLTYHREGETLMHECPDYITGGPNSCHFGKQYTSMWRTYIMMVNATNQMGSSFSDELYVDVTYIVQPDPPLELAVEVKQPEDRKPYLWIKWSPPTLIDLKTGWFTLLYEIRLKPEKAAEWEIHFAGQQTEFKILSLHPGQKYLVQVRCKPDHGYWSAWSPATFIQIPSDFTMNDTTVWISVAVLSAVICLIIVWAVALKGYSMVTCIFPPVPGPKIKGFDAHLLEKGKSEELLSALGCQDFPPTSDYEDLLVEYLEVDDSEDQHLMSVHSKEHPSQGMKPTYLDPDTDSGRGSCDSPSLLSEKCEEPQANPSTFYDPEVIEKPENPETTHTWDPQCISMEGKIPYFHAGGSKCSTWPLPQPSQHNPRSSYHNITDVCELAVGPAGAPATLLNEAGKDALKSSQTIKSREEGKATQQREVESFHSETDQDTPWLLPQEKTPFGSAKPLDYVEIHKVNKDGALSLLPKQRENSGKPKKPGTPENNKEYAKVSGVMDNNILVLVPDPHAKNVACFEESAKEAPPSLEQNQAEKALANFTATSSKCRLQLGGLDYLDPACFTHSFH
Experiment: imaging of alexa488 intensity on T47D cells
MEASURED_METRIC: % Total Binding relative to Control I

Recorded results for 2 binders are shown here.
BINDER	ASSAY_VALUE
H1H6762P (antibody, human IgG1, V domains shown, human IgG1 Fc (H1H)) VH: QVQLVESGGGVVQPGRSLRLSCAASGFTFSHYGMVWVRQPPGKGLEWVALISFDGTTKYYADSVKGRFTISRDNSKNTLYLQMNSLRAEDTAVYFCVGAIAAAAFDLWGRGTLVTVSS VL: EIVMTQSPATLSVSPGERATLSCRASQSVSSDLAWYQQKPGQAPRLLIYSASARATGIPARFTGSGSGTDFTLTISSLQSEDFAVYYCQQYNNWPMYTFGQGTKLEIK	177%
H1H6782P (antibody, human IgG1, V domains shown, human IgG1 Fc (H1H)) VH: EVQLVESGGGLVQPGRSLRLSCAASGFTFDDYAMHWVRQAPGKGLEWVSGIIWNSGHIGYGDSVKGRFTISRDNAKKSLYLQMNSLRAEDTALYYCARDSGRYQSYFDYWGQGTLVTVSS VL: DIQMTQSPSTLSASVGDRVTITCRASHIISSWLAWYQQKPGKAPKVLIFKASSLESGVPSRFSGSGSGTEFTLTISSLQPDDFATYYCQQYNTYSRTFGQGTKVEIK	210%

Ask: Using the record for H1H6785P (antibody, human IgG1, V domains shown, human IgG1 Fc (H1H)) VH: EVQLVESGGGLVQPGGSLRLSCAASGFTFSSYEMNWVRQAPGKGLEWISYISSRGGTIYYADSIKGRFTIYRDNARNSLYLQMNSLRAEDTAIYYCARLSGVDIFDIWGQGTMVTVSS VL: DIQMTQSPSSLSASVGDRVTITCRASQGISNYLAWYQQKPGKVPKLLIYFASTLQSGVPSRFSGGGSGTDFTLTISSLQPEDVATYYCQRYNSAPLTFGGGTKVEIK , report its % Total Binding relative to Control I.
Reply: 168%
